# Test system: Hepatitis C virus subtype 2b
# Assay Protocol: Inhibition of NS5A in HCV genotype 2b assessed as reduction in replicon RNA level after 3 days by cell based RT-PCR method
// reported EC90 for each item listed
The figure you give is taken to be in nM; do not add the unit.

Solved entries:
>>> measured("COC(=O)N[C@H](C(=O)N1C[C@H](F)C[C@H]1c1ncc(-c2cc(F)c3c(c2)OC(c2cccc(OC)c2)n2c-3cc3cc(-c4cnc([C@@H]5C[Si](C)(C)CN5C(=O)[C@@H](NC(=O)OC)C(C)C)[nH]4)ccc32)[nH]1)C(C)C (stereo not given in full)")
391
>>> measured("COC(=O)N[C@H](C(=O)N1CCC[C@H]1c1ncc(-c2ccc3c(c2)cc2n3C(c3ccccc3)Oc3cc(-c4cnc([C@@H]5C[C@@H](F)CN5C(=O)[C@@H](NC(=O)OC)C(C)C)[nH]4)cc(F)c3-2)[nH]1)C(C)C (stereo not given in full)")
63.6
>>> measured("COC(=O)N[C@H](C(=O)N1CCC[C@H]1c1ncc(-c2ccc3c(c2)cc2n3C(c3cccc(OC)c3)Oc3cc(-c4cnc([C@@H]5C[C@@H](F)CN5C(=O)[C@@H](NC(=O)OC)C(C)C)[nH]4)cc(F)c3-2)[nH]1)C(C)C (stereo not given in full)")
18.8

Recall and state the measured EC90 for COC(=O)N[C@H](C(=O)N1CC2(C[C@H]1c1ncc(-c3cc(F)c4c(c3)OC(c3cccc(OC)c3)n3c-4cc4cc(-c5cnc([C@@H]6CC7(CN6C(=O)[C@@H](NC(=O)OC)C(C)C)OCCCO7)[nH]5)ccc43)[nH]1)OCCCO2)C(C)C (mixture of isomers) . 114

Recall and state the measured EC90 for COC(=O)N[C@H](C(=O)N1CCC[C@H]1c1ncc(-c2cc(F)c3c(c2)OC(c2ccc4c(c2)OCCC4)n2c-3cc3cc(-c4cnc([C@@H]5CCCN5C(=O)[C@@H](NC(=O)OC)C(C)C)[nH]4)ccc32)[nH]1)C(C)C (stereo not given in full) . 0.31

* * *

# Test system: Hepatitis C virus subtype 1a
# Assay Protocol: Selectivity ratio of EC90 for NS5A Y93H mutant in HCV genotype 1a to EC90 for NS5A in HCV genotype 1a
Experimental Endpoint: Selectivity ratio
Quick one: just the number, no unit, thanks!

Solved entries:
>>> measured("COC(=O)N[C@H](C(=O)N1CCC[C@H]1c1ncc(-c2cc(F)c3c(c2)OC(c2ccc4c(c2)OCCC4)n2c-3cc3cc(-c4cnc([C@@H]5CCCN5C(=O)[C@@H](NC(=O)OC)C(C)C)[nH]4)ccc32)[nH]1)C(C)C (some centres undefined)")
160
>>> measured("COC(=O)N[C@H](C(=O)N1CCC[C@H]1c1ncc(-c2ccc3c(c2)cc2n3C(c3ccccc3)Oc3cc(-c4cnc([C@@H]5C[C@@H](F)CN5C(=O)[C@@H](NC(=O)OC)C(C)C)[nH]4)cc(F)c3-2)[nH]1)C(C)C (some centres undefined)")
233

Recall and state the measured Selectivity ratio for COC(=O)N[C@H](C(=O)N1CCC[C@H]1c1ncc(-c2ccc3c(c2)OC(c2cccc(OC)c2)n2c-3cc3cc(-c4cnc([C@@H]5C[C@H]6C[C@H]6N5C(=O)[C@@H](NC(=O)OC)C(C)C)[nH]4)ccc32)[nH]1)C(C)C (some centres undefined) . 500

* * *

# Test system: Hepatitis C virus subtype 2b
# Assay Protocol: Inhibition of NS5A in HCV genotype 2b assessed as reduction in replicon RNA level after 3 days by cell based RT-PCR method
Experimental Endpoint: EC90 (nM)
The figure you give is taken to be in nM; do not add the unit.

>>> measured("COC(=O)N[C@H](C(=O)N1C[C@H](OC(F)F)C[C@H]1c1ncc(-c2cc(F)c3c(c2)OC(c2cccc(OC)c2)n2c-3cc3cc(-c4cnc([C@@H]5C[C@@H](OC(F)F)CN5C(=O)[C@@H](NC(=O)OC)C(C)C)[nH]4)ccc32)[nH]1)C(C)C (some centres undefined)")
55.6
>>> measured("COC(=O)N[C@H](C(=O)N1CCC[C@H]1c1ncc(-c2cc(F)c3c(c2)OC(c2ccccc2)n2c-3cc3cc(-c4cnc([C@H]5[C@@H]6[C@H](CN5C(=O)[C@@H](NC(=O)OC)C(C)C)C6(C)C)[nH]4)ccc32)[nH]1)C(C)C (mixture of isomers)")
337
>>> measured("COC(=O)N[C@H](C(=O)N1CCC[C@H]1c1ncc(-c2cc(F)c3c(c2)OC(c2ccccc2)n2c-3cc3cc(-c4cnc([C@@H]5C[C@H]6C[C@H]6N5C(=O)[C@@H](NC(=O)OC)C(C)C)[nH]4)ccc32)[nH]1)C(C)C (some centres undefined)")
16.3

Pending compound:
Recall and state the measured EC90 for COC(=O)N[C@H](C(=O)N1CCC[C@H]1c1ncc(-c2cc(F)c3c(c2)OC(c2cccc(OC)c2)n2c-3cc3cc(-c4cnc([C@@H]5CCCN5C(=O)[C@@H](NC(=O)OC)C(C)C)[nH]4)ccc32)[nH]1)C(C)C (some centres undefined) . 5.72

* * *

// reported log10 of EC90 for each item listed
# Tested on: Hepatitis C virus subtype 3a
# Assay Protocol: Inhibition of NS5A in HCV genotype 3a assessed as reduction in replicon RNA level after 3 days by cell based RT-PCR method
Scale: decimal log of EC90, EC90 in nM.

Solved entries:
>>> measured("COC(=O)N[C@H](C(=O)N1CC2(C[C@H]1c1ncc(-c3cc(F)c4c(c3)OC(c3cccc(OC)c3)n3c-4cc4cc(-c5cnc([C@@H]6CC7(CN6C(=O)[C@@H](NC(=O)OC)C(C)C)OCCCO7)[nH]5)ccc43)[nH]1)OCCCO2)C(C)C (mixture of isomers)")
1.18
>>> measured("COC(=O)N[C@H](C(=O)N1C(C)CC[C@H]1c1ncc(-c2ccc3c(c2)OC(c2ccccc2)n2c-3cc3cc(-c4cnc([C@@H]5CCC(C)N5C(=O)[C@@H](NC(=O)OC)C(C)C)[nH]4)ccc32)[nH]1)C(C)C (single isomer, unassigned; diastereomer A)")
0.79
>>> measured("COC(=O)N[C@H](C(=O)N1CCC[C@H]1c1ncc(-c2ccc3c(c2)cc2n3C(c3cccc(OC)c3)Oc3cc(-c4cnc([C@@H]5C[C@@H](F)CN5C(=O)[C@@H](NC(=O)OC)C(C)C)[nH]4)cc(F)c3-2)[nH]1)C(C)C (some centres not stated)")
-0.89
>>> measured("COC(=O)N[C@H](C(=O)N1C(C)CC[C@H]1c1ncc(-c2ccc3c(c2)OC(c2ccccc2)n2c-3cc3cc(-c4cnc([C@@H]5CCC(C)N5C(=O)[C@@H](NC(=O)OC)C(C)C)[nH]4)ccc32)[nH]1)C(C)C (single isomer, unassigned; diastereomer B)")
1.71
>>> measured("COC(=O)N[C@H](C(=O)N1C[C@H](OC(F)F)C[C@H]1c1ncc(-c2cc(F)c3c(c2)OC(c2cccc(OC)c2)n2c-3cc3cc(-c4cnc([C@@H]5C[C@@H](OC(F)F)CN5C(=O)[C@@H](NC(=O)OC)C(C)C)[nH]4)ccc32)[nH]1)C(C)C (some centres not stated)")
1.11

// fetch log10 of EC90 for COC(=O)N[C@H](C(=O)N1[C@@H]2C[C@@H]2C[C@H]1c1ncc(-c2cc(F)c3c(c2)OC(c2cccc(OC)c2)n2c-3cc3cc(-c4cnc([C@@H]5C[C@H]6C[C@H]6N5C(=O)[C@@H](NC(=O)OC)C(C)C)[nH]4)ccc32)[nH]1)C(C)C (some centres not stated) ; system: Hepatitis C virus subtype 3a -0.77

// fetch log10 of EC90 for COC(=O)N[C@H](C(=O)N1CC2(CC2)C[C@H]1c1ncc(-c2cc(F)c3c(c2)OC(c2cccc(OC)c2)n2c-3cc3cc(-c4cnc([C@@H]5CC6(CC6)CN5C(=O)[C@@H](NC(=O)OC)C(C)C)[nH]4)ccc32)[nH]1)C(C)C (some centres not stated) ; system: Hepatitis C virus subtype 3a -0.80

* * *

# Tested on: Hepatitis C virus subtype 2b
# Assay Protocol: Inhibition of NS5A in HCV genotype 2b assessed as reduction in replicon RNA level after 3 days by cell based RT-PCR method
EC90 less than 50 nM is Criterion met; EC90 greater than or equal to 50 nM is Criterion not met.

Solved cases (3 shown):
>>> discrete_label("COC(=O)N[C@H](C(=O)N1CCC[C@H]1c1ncc(-c2cc(F)c3c(c2)OC(c2cccc(OC)c2)n2c-3cc3cc(-c4cnc([C@@H]5C[C@H]6C[C@H]6N5C(=O)[C@@H](NC(=O)OC)C(C)C)[nH]4)ccc32)[nH]1)C(C)C (stereo partly drawn)")
"Criterion met"
>>> discrete_label("COC(=O)N[C@H](C(=O)N1CCC[C@H]1c1ncc(-c2cc(F)c3c(c2)OC(c2cccc(OC)c2)n2c-3cc3cc(-c4cnc([C@@H]5C[C@@H](F)CN5C(=O)[C@@H](NC(=O)OC)C(C)C)[nH]4)ccc32)[nH]1)C(C)C (stereo partly drawn)")
"Criterion met"
>>> discrete_label("COC(=O)N[C@H](C(=O)N1CCC[C@H]1c1ncc(-c2cc(F)c3c(c2)OC(c2ccc4c(c2)OCCC4)n2c-3cc3cc(-c4cnc([C@@H]5C[C@H]6C[C@H]6N5C(=O)[C@@H](NC(=O)OC)C(C)C)[nH]4)ccc32)[nH]1)C(C)C (stereo partly drawn)")
"Criterion met"

Check if EC90 falls below 50 nM for COC(=O)N[C@H](C(=O)N1C[C@H](F)C[C@H]1c1ncc(-c2cc(F)c3c(c2)OC(c2cccc(OC)c2)n2c-3cc3cc(-c4cnc([C@@H]5C[C@@H](F)CN5C(=O)[C@@H](NC(=O)OC)C(C)C)[nH]4)ccc32)[nH]1)C(C)C (stereo partly drawn) . Criterion met

Check if EC90 falls below 50 nM for COC(=O)N[C@H](C(=O)N1CCC[C@H]1c1ncc(-c2cc(F)c3c(c2)OC(c2cccc(OC)c2)n2c-3cc3cc(-c4cnc([C@@H]5[C@H]6CC[C@H](C6)N5C(=O)[C@@H](NC(=O)OC)C(C)C)[nH]4)ccc32)[nH]1)C(C)C (stereo partly drawn) . Criterion not met

Check if EC90 falls below 50 nM for COC(=O)N[C@H](C(=O)N1C(C)CC[C@H]1c1ncc(-c2ccc3c(c2)OC(c2ccccc2)n2c-3cc3cc(-c4cnc([C@@H]5CCC(C)N5C(=O)[C@@H](NC(=O)OC)C(C)C)[nH]4)ccc32)[nH]1)C(C)C (single isomer, unassigned; diastereomer B) . Criterion not met

Check if EC90 falls below 50 nM for COC(=O)N[C@H](C(=O)N1C(C)CC[C@H]1c1ncc(-c2ccc3c(c2)OC(c2ccccc2)n2c-3cc3cc(-c4cnc([C@@H]5CCC(C)N5C(=O)[C@@H](NC(=O)OC)C(C)C)[nH]4)ccc32)[nH]1)C(C)C (single isomer, unassigned; diastereomer A) . Criterion not met

Check if EC90 falls below 50 nM for COC(=O)N[C@H](C(=O)N1CC2(CC2)C[C@H]1c1ncc(-c2cc(F)c3c(c2)OC(c2cccc(OC)c2)n2c-3cc3cc(-c4cnc([C@@H]5CC6(CC6)CN5C(=O)[C@@H](NC(=O)OC)C(C)C)[nH]4)ccc32)[nH]1)C(C)C (stereo partly drawn) . Criterion met

Where do these numbers come from? They come from ChEMBL document CHEMBL3853354.
